Entries and their pIC50
TARGET: hERG channel (Homo sapiens)
Sequence (Q12809 whole entry): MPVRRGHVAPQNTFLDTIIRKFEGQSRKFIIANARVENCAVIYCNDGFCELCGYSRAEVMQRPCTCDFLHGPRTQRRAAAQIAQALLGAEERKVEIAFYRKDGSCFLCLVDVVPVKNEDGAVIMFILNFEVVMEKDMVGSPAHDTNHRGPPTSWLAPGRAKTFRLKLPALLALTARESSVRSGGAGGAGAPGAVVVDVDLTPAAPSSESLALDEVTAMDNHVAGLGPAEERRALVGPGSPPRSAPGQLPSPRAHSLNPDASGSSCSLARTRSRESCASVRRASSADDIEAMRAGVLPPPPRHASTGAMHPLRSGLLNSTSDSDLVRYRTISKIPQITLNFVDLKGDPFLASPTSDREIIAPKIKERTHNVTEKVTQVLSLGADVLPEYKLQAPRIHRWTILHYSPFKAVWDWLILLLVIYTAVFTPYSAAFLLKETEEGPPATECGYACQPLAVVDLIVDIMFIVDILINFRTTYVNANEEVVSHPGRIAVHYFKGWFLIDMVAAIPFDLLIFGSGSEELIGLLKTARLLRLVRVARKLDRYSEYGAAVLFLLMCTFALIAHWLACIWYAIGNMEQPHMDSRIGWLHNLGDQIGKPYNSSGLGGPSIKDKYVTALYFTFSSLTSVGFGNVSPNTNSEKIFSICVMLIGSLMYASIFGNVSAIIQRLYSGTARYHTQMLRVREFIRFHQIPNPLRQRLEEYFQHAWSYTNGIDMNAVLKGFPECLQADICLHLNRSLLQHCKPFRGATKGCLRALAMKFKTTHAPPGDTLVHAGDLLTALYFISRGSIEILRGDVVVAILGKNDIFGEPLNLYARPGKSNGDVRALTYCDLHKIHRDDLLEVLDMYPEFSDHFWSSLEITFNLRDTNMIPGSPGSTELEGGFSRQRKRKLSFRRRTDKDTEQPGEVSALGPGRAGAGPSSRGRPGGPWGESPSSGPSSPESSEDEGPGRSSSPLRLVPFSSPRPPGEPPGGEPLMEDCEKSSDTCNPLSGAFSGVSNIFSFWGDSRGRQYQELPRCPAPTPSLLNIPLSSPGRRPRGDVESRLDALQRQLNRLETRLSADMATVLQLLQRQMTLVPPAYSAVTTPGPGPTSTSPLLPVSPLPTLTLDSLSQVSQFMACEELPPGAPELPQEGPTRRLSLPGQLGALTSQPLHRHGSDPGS
ASSAY_INFO: hERG inhibition of tail current, automated patch-clamp
Schema: pIC50 number; meaning minus log10 of the concentration expressed in molar units.

LINE_NOTATION	pIC50
O=C1N=C(N2CCCCN2)S/C1=C\c1ccc(F)cc1OC(=O)N1CCCC1	3.65

Here is another compound to look at.
Query block: May I ask what pIC50 has been recorded for `O=C1N=C(N2CCCCN2)S/C1=C\c1ccc(F)cc1O` ?
Result block: 3.35

---

ASSAY_INFO: Pharmacokinetic analysis in rats
Format: in vivo
TEST_SETTINGS: male, Sprague-Dawley, rat, plasma
MEASUREMENT_NAME: half-life

Query block: Value lookup for half-life; key = `O=C1N=C(N2CCCCN2)S/C1=C\c1ccc(F)cc1O`
Result block: < 15 min

Recorded values, source paper PMC4005788.
